// reported pIC50 per item
Tested on: 8-MG-BA;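 further: growth inhibition of 8-MG-BA cells, read out with a cell viability assay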
assayText: cells
Format: functional, cell-based, Homo sapiens
condition: Homo sapiens, 8-MG-BA
Description: SANGER: Inhibition of human 8-MG-BA cell growth in a cell viability assay.
pIC50: −log10 of the molar value.
parameter: pIC50

[[record]]
compound = "CN(c1ncccc1CNc1nc(Nc2ccc3c(c2)CC(=O)N3)ncc1C(F)(F)F)S(C)(=O)=O"
subjectoftest = "8-MG-BA"
boundtype = "<"
valuemeasured = 5.59

[[record]]
compound = "COc1cc([C@@H]2c3cc4c(cc3[C@@H](O[C@@H]3O[C@@H]5CO[C@@H](C)O[C@H]5[C@H](O)[C@H]3O)[C@H]3COC(=O)[C@H]23)OCO4)cc(OC)c1O [ETOPOSIDE]"
subjectoftest = "8-MG-BA"
boundtype = "="
valuemeasured = 7.33

[[record]]
compound = "Nc1ccn([C@@H]2O[C@H](CO)[C@@H](O)[C@@H]2O)c(=O)n1"
subjectoftest = "8-MG-BA"
boundtype = "="
valuemeasured = 6.47

[[record]]
compound = "O=C(/C=C/c1ccccc1)NC(NC(=S)Nc1cccc2cccnc12)C(Cl)(Cl)Cl (stereo not drawn)"
subjectoftest = "8-MG-BA"
boundtype = "="
valuemeasured = 4.96

[[record]]
compound = "O=C(c1cc(Cc2n[nH]c(=O)c3ccccc23)ccc1F)N1CCN(C(=O)C2CC2)CC1"
subjectoftest = "8-MG-BA"
boundtype = "<"
valuemeasured = 5.30

[[record]]
compound = "CCC1=C[C@@H]2CN(C1)Cc1c([nH]c3ccccc13)[C@@](C(=O)OC)(c1cc3c(cc1OC)N(C)[C@H]1[C@@](O)(C(=O)OC)[C@H](OC(C)=O)[C@]4(CC)C=CCN5CC[C@]31[C@@H]54)C2"
subjectoftest = "8-MG-BA"
boundtype = "="
valuemeasured = 8.47

[[record]]
compound = "O=c1cc(-c2cccc3c2Sc2ccccc2S3)oc(N2CCOCC2)c1"
subjectoftest = "8-MG-BA"
boundtype = "<"
valuemeasured = 5.00

[[record]]
compound = "CNC(=O)c1cc(Oc2ccc(NC(=O)Nc3ccc(Cl)c(C(F)(F)F)c3)cc2)ccn1"
subjectoftest = "8-MG-BA"
boundtype = "<"
valuemeasured = 5.40

